# System: Pyrenophora graminea
# Test Summary: In vitro antimicrobial activity test on PDA plate media (colony diameter)
# Assay type: cell-based
# Measurement Conditions: used alone, 0.50 ppm
The threshold is inclusive: Actual fungal growth inhibition rate (%) of exactly 60% counts as T; values below receive F.

Worked examples, 3 compounds total:
{"columns": ["Compound", "Group"],
 "data": [
  ["COC(=O)C(O)(Cn1cncn1)c1ccc(Oc2ccc(Cl)cc2)cc1Br (centres unmarked)", "T"],
  ["COC(=O)C(O)(Cn1cncn1)c1ccc(Oc2ccc(Cl)cc2)cc1C(F)(F)F (centres unmarked)", "T"],
  ["COC(=O)C(O)(Cn1cncn1)c1ccc(Oc2ccc(C(F)(F)F)cc2)cc1Cl (centres unmarked)", "T"]
]}

Now examine the next entry.
Q: API: above_or_equal(metric=Actual fungal growth inhibition rate (%), cutoff=60%) for item CON=C(C(=O)OC)c1ccccc1CON=C(C)c1cccc(C(F)(F)F)c1 [Trifloxystrobin, trifloxystrobin, reference compound]
Ans: F
